experimental-system: human CLDN18.2 (human)
protocol-summary: cell-based or functional assay
reported-property: ADCC EC50, Jurkat-CD16a v158-NFAT-luciferase effector cells, NUGC-4 target cells

Ask: Using the record for chimeric antibody xi40F6 (antibody, human IgG1, kappa, V domains shown, Mouse variable regions on human IgG1/kappa; defucosylated, expressed in FUT8-knockout CHO-S cells; also called chimeric 40F6) VH: QVQLKESGPGLVAPSQSLSITCTVSGFSLTSYGVYWVRQSPGKGLEWLGVVWAGGNTNYNSALMSRLSISKDNSKSQVFLKMNSLQTDDTAMYYCARDRGRLLAMDYWGQGTSVTVSS VL: DVVMTQSPSSLSVSAGEKVTMSCKSSQSLLNSGNQKNYLAWYQQKPGQPPKLLIYGASTRESGVPDRFTGSGSGTDFTLTISSVQAEDLAVYYCQNDHFFPFTFGSGTKLEIKR , report its ADCC EC50, Jurkat-CD16a v158-NFAT-luciferase effector cells, NUGC-4 target cells.
Reply: ~0.014 nM

Just for reference, patent US20240409629A1 is where these values come from.
